Items are presented alongside their recorded CC50.
System: fibroblast cells (NCTC clone 929)
testProtocol: Cytotoxic assay (MTT)
Assay type: cell-based, Murine
runConditions: NCTC clone 929 cells, 48 h, highest tested concentration 200 μM
readout: CC50

>  <smiles>
C=C1[C@@H](C)[C@H]2[C@H](Cc3ccccc3)NC(=O)[C@]23[C@H](OC(C)=O)/C=C/[C@](C)(O)C[C@@H](C)C/C=C/[C@H]3[C@@H]1O

>  <reportedMeasurement>
> 200 µM

$$$$
>  <smiles>
CCCCCCCC(=O)c1c(O)cc(O)cc1CC(=O)O

>  <reportedMeasurement>
> 200 µM

$$$$
>  <smiles>
COC(=O)Cc1cc(O)cc(O)c1C(=O)CCCCCC(C)=O

>  <reportedMeasurement>
> 200 µM

$$$$
